- experimentalSystem: PI3Kα (p110α/p85α) (Homo sapiens (Human), UniProt P42336)
- Sequence (P42336 whole entry): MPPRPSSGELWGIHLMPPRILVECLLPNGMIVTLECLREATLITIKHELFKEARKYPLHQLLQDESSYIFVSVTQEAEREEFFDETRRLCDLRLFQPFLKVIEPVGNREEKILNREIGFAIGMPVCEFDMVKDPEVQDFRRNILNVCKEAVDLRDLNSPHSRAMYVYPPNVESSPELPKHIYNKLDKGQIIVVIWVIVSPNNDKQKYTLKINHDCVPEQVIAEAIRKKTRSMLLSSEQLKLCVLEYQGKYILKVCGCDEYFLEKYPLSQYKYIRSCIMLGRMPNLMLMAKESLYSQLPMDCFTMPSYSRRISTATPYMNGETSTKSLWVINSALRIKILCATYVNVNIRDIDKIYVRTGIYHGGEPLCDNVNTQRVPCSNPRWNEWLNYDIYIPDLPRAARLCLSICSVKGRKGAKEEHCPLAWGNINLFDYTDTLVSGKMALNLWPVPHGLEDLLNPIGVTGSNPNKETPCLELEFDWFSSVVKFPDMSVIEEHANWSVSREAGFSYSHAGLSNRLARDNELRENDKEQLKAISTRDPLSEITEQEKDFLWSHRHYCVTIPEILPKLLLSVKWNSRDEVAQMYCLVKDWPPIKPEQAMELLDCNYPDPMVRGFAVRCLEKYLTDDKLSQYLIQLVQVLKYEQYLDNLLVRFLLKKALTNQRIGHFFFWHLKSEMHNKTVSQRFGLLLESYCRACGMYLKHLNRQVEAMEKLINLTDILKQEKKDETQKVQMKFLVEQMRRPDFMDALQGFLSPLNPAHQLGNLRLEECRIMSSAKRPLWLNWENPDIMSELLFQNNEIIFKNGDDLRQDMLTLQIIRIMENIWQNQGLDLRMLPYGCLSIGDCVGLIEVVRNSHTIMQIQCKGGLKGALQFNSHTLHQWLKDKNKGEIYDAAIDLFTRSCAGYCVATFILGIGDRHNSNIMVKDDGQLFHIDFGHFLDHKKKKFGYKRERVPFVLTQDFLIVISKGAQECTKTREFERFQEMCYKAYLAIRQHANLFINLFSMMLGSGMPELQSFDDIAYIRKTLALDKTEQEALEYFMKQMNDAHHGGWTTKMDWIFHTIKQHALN
- Sequence (P27986 whole entry partner): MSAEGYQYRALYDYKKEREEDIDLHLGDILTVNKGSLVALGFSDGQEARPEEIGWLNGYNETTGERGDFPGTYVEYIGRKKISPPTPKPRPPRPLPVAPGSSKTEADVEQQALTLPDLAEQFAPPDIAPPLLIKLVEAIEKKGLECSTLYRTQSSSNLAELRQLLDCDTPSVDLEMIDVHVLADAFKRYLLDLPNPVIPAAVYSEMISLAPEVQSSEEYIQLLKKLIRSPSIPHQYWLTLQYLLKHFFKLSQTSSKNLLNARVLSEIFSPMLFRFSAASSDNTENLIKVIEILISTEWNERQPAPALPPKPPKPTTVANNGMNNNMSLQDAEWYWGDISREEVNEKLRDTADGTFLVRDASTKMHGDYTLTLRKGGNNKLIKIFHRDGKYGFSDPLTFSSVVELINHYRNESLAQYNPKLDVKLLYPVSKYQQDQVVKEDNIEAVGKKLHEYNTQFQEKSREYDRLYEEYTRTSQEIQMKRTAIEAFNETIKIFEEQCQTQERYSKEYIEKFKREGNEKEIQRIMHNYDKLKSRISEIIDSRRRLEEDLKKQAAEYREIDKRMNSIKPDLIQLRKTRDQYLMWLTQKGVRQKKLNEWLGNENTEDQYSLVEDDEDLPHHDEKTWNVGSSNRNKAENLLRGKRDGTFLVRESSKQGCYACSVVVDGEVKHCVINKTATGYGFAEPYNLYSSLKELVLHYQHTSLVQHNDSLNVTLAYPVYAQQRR
- procedureText: PI3Kα enzymatic test by measuring the consumption of ATP
- Format: biochemical
Field: PI3Ka IC50. Provide a value for each of the compounds that follow.
The response must be a number in µM with no trailing unit.

q: Reported PI3Ka IC50, compound CCN1CC(C)(C)Oc2nc(N3CCOCC3)nc(-c3ccc(OC)c(CO)c3)c2C1=O [Example 100] : ____
a: 7.44

q: And then CCN1CC(C)(C)Oc2nc(N3CCOC[C@@H]3C)nc(-c3ccc(NC(=O)Nc4cccc(OC(F)F)c4)cc3)c2C1=O [Example 204] , what is it?
a: 0.468

q: Further, for CCN1CC(C)(C)Oc2nc(N3CCOC[C@@H]3C)nc(-c3ccc(NC(=O)Nc4ccc(N5CCOCC5)nc4)c(F)c3)c2C1=O [Example 187] ?
a: 0.472

q: Repeat for the following compound: CCN1CC(C)(C)Oc2nc(N3CCOC[C@@H]3C)nc(-c3ccc(NC(=O)Nc4ccc(N5CCOCC5(C)C)nc4)c(F)c3)c2C1=O [Example 256]
a: 0.199

###

- experimentalSystem: mTOR (human recombinant aa mTOR 1360-2549) (Homo sapiens (Human))
- Sequence (P42345 1360-2549): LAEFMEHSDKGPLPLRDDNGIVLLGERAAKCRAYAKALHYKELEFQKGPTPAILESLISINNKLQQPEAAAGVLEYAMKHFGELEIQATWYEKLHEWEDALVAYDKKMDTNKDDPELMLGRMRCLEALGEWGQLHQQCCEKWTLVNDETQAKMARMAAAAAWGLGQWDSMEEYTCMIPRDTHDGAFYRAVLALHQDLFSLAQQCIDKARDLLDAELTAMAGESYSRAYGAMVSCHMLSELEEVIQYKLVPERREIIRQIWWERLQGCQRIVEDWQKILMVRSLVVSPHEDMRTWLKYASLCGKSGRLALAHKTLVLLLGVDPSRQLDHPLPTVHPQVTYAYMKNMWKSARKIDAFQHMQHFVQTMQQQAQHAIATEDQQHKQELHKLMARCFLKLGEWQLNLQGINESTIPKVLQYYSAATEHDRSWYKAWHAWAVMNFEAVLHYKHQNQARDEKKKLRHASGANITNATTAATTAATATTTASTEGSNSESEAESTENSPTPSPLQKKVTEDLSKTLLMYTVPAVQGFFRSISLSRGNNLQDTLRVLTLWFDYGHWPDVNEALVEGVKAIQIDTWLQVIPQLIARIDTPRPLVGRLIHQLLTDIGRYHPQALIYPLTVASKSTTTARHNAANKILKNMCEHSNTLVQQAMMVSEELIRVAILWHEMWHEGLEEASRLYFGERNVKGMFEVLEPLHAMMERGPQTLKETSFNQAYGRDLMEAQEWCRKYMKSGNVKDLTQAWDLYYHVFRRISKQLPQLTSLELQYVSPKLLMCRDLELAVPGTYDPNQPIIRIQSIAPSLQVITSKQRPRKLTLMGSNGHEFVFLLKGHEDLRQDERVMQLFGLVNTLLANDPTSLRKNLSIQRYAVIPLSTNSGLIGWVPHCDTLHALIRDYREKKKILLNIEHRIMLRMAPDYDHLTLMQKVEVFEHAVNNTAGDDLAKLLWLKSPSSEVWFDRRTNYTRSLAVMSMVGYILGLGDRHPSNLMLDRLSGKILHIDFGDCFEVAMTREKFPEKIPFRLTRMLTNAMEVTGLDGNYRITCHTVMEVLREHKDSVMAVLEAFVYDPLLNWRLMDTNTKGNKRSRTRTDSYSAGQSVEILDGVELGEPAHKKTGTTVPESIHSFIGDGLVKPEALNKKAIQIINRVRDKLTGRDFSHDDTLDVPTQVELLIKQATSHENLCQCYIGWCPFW
- procedureText: mTOR enzymatic test by TR-FRET (phosphorylation of GFP-4EBP1)
- Format: biochemical
Field: label. Allowed values: Satisfied (IC50 < 0.04 µM) or Not satisfied (IC50 >= 0.04 µM).

q: Record `CCN1CC(C)(C)Oc2nc(N3CC4CCC(C3)O4)nc(-c3ccc(NC(=O)Nc4ccc(OC)nn4)c(F)c3)c2C1=O` : is its IC50 strictly below 0.04 µM?
a: Not satisfied

q: Then what about the compound `CCN1CC(C)(C)Oc2nc(N3CC4CCC(C3)O4)nc(-c3ccc(NC(=O)NCc4ccc(OC)nc4)c(F)c3)c2C1=O` ?
a: Not satisfied

q: Could you do the same for `CCNC(=O)Nc1ccc(-c2nc(N3CC4CCC(C3)O4)nc3c2C(=O)N(CC)CC(C)(C)O3)cc1` , please?
a: Satisfied

q: Try the compound `CCN1CC(C)(C)Oc2nc(N3C4CCC3COC4)nc(-c3ccc(NC(=O)Nc4cc(C)nc(C)c4)c(F)c3)c2C1=O`
a: Not satisfied

q: How about `CN1CC(C)(C)Oc2nc(N3C4CCC3COC4)nc(-c3ccc(NC(=O)Nc4ccccn4)cc3)c2C1=O` ?
a: Satisfied

q: Then `COCCN1CC(C)(C)Oc2nc(N3CC4CCC(C3)O4)nc(-c3ccc(NC(=O)Nc4ccc(OC)nc4)c(F)c3)c2C1=O` ?
a: Not satisfied

q: Would you mind doing CCN1CC(C)(C)Oc2nc(N3CC4CCC(C3)O4)nc(-c3ccc(NC(=O)Nc4ccc(OC)nc4)c(F)c3)c2C1=O [Example 240] as well?
a: Not satisfied

###

- System: U87MG tumour cells
- procedureText: Test of in vitro proliferation of U87MG tumour cells
- Format: cell-based
- measurementContext: Homo sapiens, U-87 MG, 72 h, U87MG cells, 72 hours; read-out: U87 Cell Proliferation IC50
Provide the reported pIC50 of each item.
The scale used: pIC50 is minus the common logarithm of the concentration in molar units.

q: GET /values?readout=pIC50&item= CCN1CC(C)(C)Oc2nc(N3CC4CCC(C3)O4)nc(-c3ccc(NC(=O)Nc4ccc(N5CCN(C(=O)OC)CC5)nc4)c(F)c3)c2C1=O [Example 81]
a: 6.97

q: How about this compound: CN1CC(C)(C)Oc2nc(N3CC4CCC(C3)O4)nc(-c3ccc(NC(=O)Nc4ccncc4)cc3)c2C1=O [Example 69]
a: 7.10

q: Entry to check: COc1ccc(NC(=O)Nc2ccc(-c3nc(N4CC5CCC(C4)O5)nc4c3C(=O)N(C3CCOCC3)CC(C)(C)O4)cc2)cn1 [Example 148]
a: 6.31

q: # iterate: CCN1CC(C)(C)Oc2nc(N3CC4CCC(C3)O4)nc(-c3ccc(NC(=O)Nc4ccc(F)cc4F)cc3)c2C1=O [Example 19]
a: 6.91

q: And CCN1CC(C)(C)Oc2nc(N3CC4CCC(C3)O4)nc(-c3ccc(NC(=O)NCCO)cc3)c2C1=O [Example 117] ?
a: 5.77

q: Also, CCN1CC(C)(C)Oc2nc(N3C4CCC3COC4)nc(-c3ccc(NC(=O)Nc4ccc(C)nc4)c(F)c3)c2C1=O [Example 229] please.
a: 7.07

q: Then CCN1CC(C)(C)Oc2nc(N3CC4CCC(C3)O4)nc(-c3ccc(NC(=O)Nc4cnn(C)c4)cc3)c2C1=O [Example 126] ?
a: 6.65

q: What do you get for CC[C@H]1COCCN1c1ccc(NC(=O)Nc2ccc(-c3nc(N4C5CCC4COC5)nc4c3C(=O)N(CC)CC(C)(C)O4)cc2F)cn1 [Example 249] ?
a: 7.54

q: One more compound: CCN1CC(C)(C)Oc2nc(N3CC4CCC(C3)O4)nc(-c3ccc(NC(=O)Nc4ccc(N5CCC(O)C5)cn4)cc3)c2C1=O (centres unmarked) [Example 72]
a: 6.30

q: Now consider COc1ccc(NC(=O)Nc2ccc(-c3nc(N4CCOC[C@@H]4C)nc4c3C(=O)N(C3CCOCC3)CC(C)(C)O4)cc2F)cn1 [Example 189] .
a: 6.35

q: Query CCN1CC(C)(C)Oc2nc(N3CC4CCC(C3)O4)nc(-c3ccc(NC(=O)Nc4ccc(N5CCOC[C@@H]5C)nc4)c(F)c3)c2C1=O [Example 29] next
a: 6.78

q: One more compound: CCN1CC(C)(C)Oc2nc(N3CC4CCC(C3)O4)nc(-c3ccc(NC(=O)O[C@@H](C)CO)c(F)c3)c2C1=O [Example 61]
a: 5.33

Source: patent US9120812B2
